The values you see were collected from patent US20030044800A1.

- target_of_assay: UniProt P39286
measurement_label: pKd
The quantity pKd is defined as the negative base-10 logarithm of the molar concentration.

Problem: Lab note: need pKd for Nc1nc2c(ncn2[C@@H]2O[C@H](COP(=O)(O)OP(=O)(O)OP(O)(O)=S)[C@@H](O)[C@H]2O)c(=O)[nH]1 [GTP-gamma-S] on UniProt P39286, anyone have it?
Solution: 3.94
